Numbers sourced from patent US20260125382A1.

- Study Target: CDK2 (Homo sapiens, UniProt P24941)
- Construct: endogenous in cells; host or cells: MDA-MB-231
- Assay Name: CDK protein degradation activity (Western blotting), CDK2
- Assay type: cell-based
- Assay Setup: MDA-MB-231 cells, 10 μM, 16 hours, Western blot
Property Name: Enzyme degradation CDK2 (% remaining) @ 10 μM (%)

Some solved cases for reference:
Compound: O=C1CC[C@H](N2C(=O)c3ccc(N4CCC5(CC4)CC(N4CCN(c6ccc(Nc7ncnc8c7ncn8C7CC(NC(=O)c8c(Cl)cccc8Cl)C7)cc6)CC4)C5)cc3C2=O)C(=O)N1 (stereo partly shown)
Obs Value: 30
//
Compound: O=C1CC[C@H](N2C(=O)c3cccc(N4CCC(CN5CCC(CNc6ncnc7c6ncn7C6CC(NC(=O)c7c(Cl)cccc7Cl)C6)CC5)CC4)c3C2=O)C(=O)N1 (stereo partly shown)
Obs Value: 20
//
Compound: Cc1cccc(C(=O)NC2CC(n3cnc4c(NCc5ccc(N6CCN(C(=O)CNc7cccc8c7C(=O)N([C@H]7CCC(=O)NC7=O)C8=O)CC6)cc5)ncnc43)C2)n1 (stereo partly shown)
Obs Value: 60
//
Compound: Cc1cccc(C(=O)NC2CC(n3cnc4c(NC5CCN(CCC6CCN(C(=O)COc7cccc8c7C(=O)N([C@H]7CCC(=O)NC7=O)C8=O)CC6)CC5)ncnc43)C2)n1 (stereo partly shown)
Obs Value: 20
//
Compound: O=C1CCC(N2C(=O)c3cc(F)c(N4CCC(C(=O)N5CCC(CN6CCC(CCNc7ncnc8c7ncn8[C@H]7C[C@@H](NC(=O)Cc8ccccc8)C7)CC6)CC5)CC4)cc3C2=O)C(=O)N1 (stereo partly shown)
Obs Value: 40
//
Compound: O=C1CC[C@H](N2C(=O)c3ccc(N4CCC(C(=O)N5CCN(CCC6CCN(c7ccc(Nc8ncnc9c8ncn9[C@H]8C[C@@H](NC(=O)Cc9ccccc9)C8)cc7)CC6)CC5)CC4)cc3C2=O)C(=O)N1
Obs Value: 30

(A) O=C1CC[C@H](N2C(=O)c3ccc(N4CCC(CN5CCN(c6ccc(Nc7ncnc8c7ncn8[C@H]7C[C@@H](NC(=O)Cc8ccccc8)C7)cc6)CC5)CC4)cc3C2=O)C(=O)N1
(B) O=C1CC[C@@H](c2ccc(OCC(=O)N3CCC(CN4CCN(c5ccc(Nc6ncnc7c6ncn7C6CC(NC(=O)Cc7ccccc7)C6)cc5)CC4)CC3)cc2)C(=O)N1 (stereo partly shown)
Consider A and B . Which of these has its Enzyme degradation CDK2 (% remaining) @ 10 μM at a higher number? Please reply using the label of the selected record. B

###

- Study Target: CDK2 (Homo sapiens)
- Construct: endogenous in cells; host or cells: MDA-MB-231
- Assay Name: CDK protein degradation activity (Western blotting), CDK2
- Assay type: cell-based
- Assay Setup: MDA-MB-231 cells, 1 μM, 16 hours, Western blot
Property Name: Enzyme degradation CDK2 (% remaining) @ 1 μM (%)

Check out these entries, answers already filled in.
Molecule: O=C1CC[C@H](N2C(=O)c3cccc(N4CC(CN5CCC6(CC5)CC(N5CCN(c7ccc(Nc8ncnc9c8ncn9[C@H]8C[C@@H](NC(=O)Cc9ccccc9)C8)cc7)CC5)C6)C4)c3C2=O)C(=O)N1 [Compound 279]
Obs Value: 40
--
Molecule: O=C1CC[C@H](N2C(=O)c3ccc(N4CCC(C(=O)N5CCC6(CC5)CC(N5CCN(c7ccc(Nc8ncnc9c8ncn9C8CC(NC(=O)Cc9ccccc9)C8)cc7)CC5)C6)CC4)cc3C2=O)C(=O)N1 (stereo partly shown) [Compound 353]
Obs Value: 40
--
Molecule: O=C1CCC(N2C(=O)c3cccc(OCC(=O)N4CCC5(CC4)CC(N4CCN(c6ccc(Nc7ncnc8c7ncn8[C@H]7C[C@@H](NC(=O)Cc8ccccc8)C7)cc6)CC4)C5)c3C2=O)C(=O)N1 (stereo partly shown) [Compound 206]
Obs Value: 20
--
Molecule: Cc1cccc(C(=O)NC2CC(n3cnc4c(NC5CCN(CCCN6CCN(c7cccc8c7C(=O)N([C@H]7CCC(=O)NC7=O)C8=O)CC6)CC5)ncnc43)C2)n1 (stereo partly shown) [Compound 42]
Obs Value: 60

(1) O=C1CC[C@H](N2C(=O)c3ccc(NCC(=O)N4CCC5(CC4)CC(N4CCC(c6ccc(Nc7ncnc8c7ncn8[C@H]7C[C@@H](NC(=O)Cc8ccccc8)C7)cc6)CC4)C5)cc3C2=O)C(=O)N1 (racemic) [Compound 296]
(2) O=C1CC[C@H](N2C(=O)c3ccc(N4CCC(C(=O)N5CCN(CCC6CCN(c7ccc(Nc8ncnc9c8ncn9[C@H]8C[C@@H](NC(=O)Cc9ccccc9)C8)cc7)CC6)CC5)CC4)cc3C2=O)C(=O)N1 [Compound 363]
Identify the entry with the smaller Enzyme degradation CDK2 (% remaining) @ 1 μM: 1 or 2 . // output: label of the selected item 1
(1: 0%, 2: 50%)
